// provenance: patent US20040146519A1

IC50: recorded values
# target.entity: HLA-B*3501 (human)
# experiment: inhibition of 125I probe peptide, purified HLA

- binder: "FPHRWCIPI [CEA.7.F1I9]"
  IC50, nM: 257
- binder: "FPGVNLSL [CEA.428.F1]"
  IC50, nM: 277
- binder: "FPQQHTQVLI [CEA.632.F1I10]"
  IC50, nM: 809
- binder: "FPVSPRLQL [CEA.363.F1]"
  IC50, nM: 600
- binder: "FPQQHTQVI [CEA.632.F1I9]"
  IC50, nM: 139
- binder: "FPSAPPHRI [CEA.3.F1I9]"
  IC50, nM: 3600
- binder: "FPAYSGREI [CEA.92.F1]"
  IC50, nM: 7200
- binder: "FPDAPTISPL [CEA.236.F1]"
  IC50, nM: 327
- binder: "FPWQRLLLTI [CEA.13.F1I10]"
  IC50, nM: 2120
- binder: "FPDAPTISPI [CEA.236.F1I10]"
  IC50, nM: 1330
- binder: "FPQHLFGYSI [CEA.58.F1I10]"
  IC50, nM: 900
